# System: HAB1
# assay text: Yeast two hybrid of pBD-PYR1 site saturation mutants with pACT-HAB1 on 10 μM ABA, β-galactosidase staining
# Format: cell-based, Arabidopsis
# Design: key: x: Mutations in PYR1 that disrupt ABA-induced binding to PYR1 to HAB1
# run conditions: S. cerevisiae Y190, 10 μM ABA; dead = lack of visible staining in comparison to wild type control
# Excerpt: To systematically identify mutations in PYR1 that disrupt its binding to HAB1, we utilized a collection of saturating mutations that contain all possible single amino acid substitutions in 24 conserved interface residues involved in binding HAB1, which was previously constructed for the purpose of engineering constitutively active ABA receptor variants (Mosquna et al., 2011). […]
experimental readout: Mutations in PYR1 that disrupt ABA-induced binding to PYR1 to HAB1

molecule	recorded measurement
S85W: PYR1 mutant (protein, UniProt O49686 1-191, looked up, variant S85W) Abscisic acid receptor PYR1: MPSELTPEERSELKNSIAEFHTYQLDPGSCSSLHAQRIHAPPELVWSIVRRFDKPQTYKHFIKSCSVEQNFEMRVGCTRDVIVIWGLPANTSTERLDILDDERRVTGFSIIGGEHRLTNYKSVTTVHRFEKENRIWTVVLESYVVDMPEGNSEDDTRMFADTVVKLNLQKLATVAEAMARNSGDGSGSQVT	x
P88L: PYR1 mutant (protein, UniProt O49686 1-191, looked up, variant P88L) Abscisic acid receptor PYR1: MPSELTPEERSELKNSIAEFHTYQLDPGSCSSLHAQRIHAPPELVWSIVRRFDKPQTYKHFIKSCSVEQNFEMRVGCTRDVIVISGLLANTSTERLDILDDERRVTGFSIIGGEHRLTNYKSVTTVHRFEKENRIWTVVLESYVVDMPEGNSEDDTRMFADTVVKLNLQKLATVAEAMARNSGDGSGSQVT	x
T162D: PYR1 mutant T162D, denoted PYR1^! (protein, UniProt O49686 1-191, looked up, variant T162D) Abscisic acid receptor PYR1: MPSELTPEERSELKNSIAEFHTYQLDPGSCSSLHAQRIHAPPELVWSIVRRFDKPQTYKHFIKSCSVEQNFEMRVGCTRDVIVISGLPANTSTERLDILDDERRVTGFSIIGGEHRLTNYKSVTTVHRFEKENRIWTVVLESYVVDMPEGNSEDDTRMFADDVVKLNLQKLATVAEAMARNSGDGSGSQVT	x
